targetDesc: Glycogen synthase kinase-3 beta (Homo sapiens)
Sequence (P49841 whole entry): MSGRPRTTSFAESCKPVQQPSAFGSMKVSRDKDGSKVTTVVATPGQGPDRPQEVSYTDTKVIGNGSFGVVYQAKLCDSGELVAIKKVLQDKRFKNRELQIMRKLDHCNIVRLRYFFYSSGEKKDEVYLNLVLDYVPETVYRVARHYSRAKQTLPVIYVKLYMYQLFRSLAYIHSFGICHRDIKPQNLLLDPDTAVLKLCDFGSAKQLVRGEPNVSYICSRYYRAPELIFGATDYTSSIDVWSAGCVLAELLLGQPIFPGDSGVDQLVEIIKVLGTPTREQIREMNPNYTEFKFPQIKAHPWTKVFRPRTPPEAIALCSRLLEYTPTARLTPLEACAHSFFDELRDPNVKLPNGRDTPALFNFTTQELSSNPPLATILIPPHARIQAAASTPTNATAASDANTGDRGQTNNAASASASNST
assayDetails: Inhibition of GSK3B (unknown origin)
pKi: −log10 of the molar value.
testReadout: pKi

Test system Glycogen synthase kinase-3 beta (Homo sapiens); read-out pKi; what value for Cc1nc(NC(=O)NCCOCC2CC2)sc1C#Cc1ccc2cncn2c1 ? < 5.40

Check Cc1nc(NC(=O)NCCc2cn(CC(F)F)cn2)sc1C#Cc1cccnc1 too. < 5.40

Check COc1cc(C#Cc2sc(NC(=O)NCCOCC3CC3)nc2C)cnc1OC too. < 5.40

====

targetDesc: Serine/threonine-protein kinase PLK1 (Homo sapiens, UniProt P53350)
Sequence (P53350 whole entry): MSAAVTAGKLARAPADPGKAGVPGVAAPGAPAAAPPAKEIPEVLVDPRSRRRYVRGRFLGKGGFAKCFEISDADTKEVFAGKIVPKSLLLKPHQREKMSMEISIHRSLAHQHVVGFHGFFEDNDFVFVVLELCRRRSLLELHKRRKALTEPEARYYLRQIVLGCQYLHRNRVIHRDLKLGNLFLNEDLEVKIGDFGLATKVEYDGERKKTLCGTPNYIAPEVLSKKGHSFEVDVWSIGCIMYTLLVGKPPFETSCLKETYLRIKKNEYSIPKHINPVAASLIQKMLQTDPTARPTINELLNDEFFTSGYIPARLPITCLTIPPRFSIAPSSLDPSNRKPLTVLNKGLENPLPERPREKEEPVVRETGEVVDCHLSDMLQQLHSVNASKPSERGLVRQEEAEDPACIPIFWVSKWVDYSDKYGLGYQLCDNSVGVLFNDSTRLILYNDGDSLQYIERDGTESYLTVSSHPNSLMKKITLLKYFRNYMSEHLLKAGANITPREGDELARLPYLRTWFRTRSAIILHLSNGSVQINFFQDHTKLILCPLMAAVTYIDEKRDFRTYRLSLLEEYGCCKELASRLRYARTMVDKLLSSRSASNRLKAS
testReadout: Ki

Name the reported Ki value associated with the molecule COc1cc(C#Cc2sc(NC(=O)NCCOCC3CC3)nc2C)cnc1OC > 4 µM

Check Cc1nc(NC(=O)NCCc2cn(CC(F)F)cn2)sc1C#Cc1cccnc1 too. > 4 µM

====

targetDesc: Tyrosine-protein kinase JAK2 (Homo sapiens, UniProt O60674)
assayDetails: Inhibition of JAK2 (unknown origin)
testReadout: Ki

Name the reported Ki value associated with the compound Cc1nc(NC(=O)NCCOCC2CC2)sc1C#Cc1ccc2cncn2c1 > 4 µM

====

targetDesc: Tyrosine-protein kinase SYK (Homo sapiens)
testReadout: Ki

Name the reported Ki value associated with the molecule Cc1nc(NC(=O)NCCc2cn(CC(F)F)cn2)sc1C#Cc1cccnc1 > 4 µM

====

Please go through the items and note down their pKi.
targetDesc: Receptor-type tyrosine-protein kinase FLT3 (Homo sapiens)
Sequence (P36888 whole entry): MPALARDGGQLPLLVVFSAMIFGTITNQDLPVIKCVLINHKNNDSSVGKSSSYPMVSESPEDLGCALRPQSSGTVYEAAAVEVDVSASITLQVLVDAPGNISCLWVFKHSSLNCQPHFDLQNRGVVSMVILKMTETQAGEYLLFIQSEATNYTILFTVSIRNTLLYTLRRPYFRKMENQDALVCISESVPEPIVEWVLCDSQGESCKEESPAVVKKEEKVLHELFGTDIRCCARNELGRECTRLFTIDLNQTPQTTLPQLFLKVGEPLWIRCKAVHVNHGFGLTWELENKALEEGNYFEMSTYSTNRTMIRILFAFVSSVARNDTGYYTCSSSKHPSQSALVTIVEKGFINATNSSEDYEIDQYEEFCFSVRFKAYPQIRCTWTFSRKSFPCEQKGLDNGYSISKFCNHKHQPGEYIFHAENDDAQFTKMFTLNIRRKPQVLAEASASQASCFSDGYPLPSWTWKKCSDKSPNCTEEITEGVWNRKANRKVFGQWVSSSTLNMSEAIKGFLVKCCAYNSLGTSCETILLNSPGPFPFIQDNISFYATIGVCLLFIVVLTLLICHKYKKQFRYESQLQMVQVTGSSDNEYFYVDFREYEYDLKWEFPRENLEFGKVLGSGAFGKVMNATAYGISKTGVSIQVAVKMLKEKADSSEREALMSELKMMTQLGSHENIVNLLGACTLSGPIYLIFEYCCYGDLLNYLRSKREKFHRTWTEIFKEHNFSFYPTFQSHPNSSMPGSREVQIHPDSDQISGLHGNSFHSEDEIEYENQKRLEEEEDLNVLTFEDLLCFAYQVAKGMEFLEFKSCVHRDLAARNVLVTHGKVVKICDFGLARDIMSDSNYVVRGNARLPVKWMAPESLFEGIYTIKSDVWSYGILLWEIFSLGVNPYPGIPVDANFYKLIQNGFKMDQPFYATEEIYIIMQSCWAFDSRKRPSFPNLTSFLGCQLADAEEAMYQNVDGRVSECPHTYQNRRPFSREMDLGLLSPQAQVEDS
pKi: −log10 of the molar value.

Name the reported pKi value associated with the compound COc1cc(C#Cc2sc(NC(=O)NCCOCC3CC3)nc2C)cnc1OC < 5.40

Check Cc1nc(NC(=O)NCCOCC2CC2)sc1C#Cc1ccc2cncn2c1 too. < 5.40

====

targetDesc: Phosphatidylinositol 4,5-bisphosphate 3-kinase catalytic subunit gamma isoform (Homo sapiens)
Sequence (P48736 whole entry, canonical isoform): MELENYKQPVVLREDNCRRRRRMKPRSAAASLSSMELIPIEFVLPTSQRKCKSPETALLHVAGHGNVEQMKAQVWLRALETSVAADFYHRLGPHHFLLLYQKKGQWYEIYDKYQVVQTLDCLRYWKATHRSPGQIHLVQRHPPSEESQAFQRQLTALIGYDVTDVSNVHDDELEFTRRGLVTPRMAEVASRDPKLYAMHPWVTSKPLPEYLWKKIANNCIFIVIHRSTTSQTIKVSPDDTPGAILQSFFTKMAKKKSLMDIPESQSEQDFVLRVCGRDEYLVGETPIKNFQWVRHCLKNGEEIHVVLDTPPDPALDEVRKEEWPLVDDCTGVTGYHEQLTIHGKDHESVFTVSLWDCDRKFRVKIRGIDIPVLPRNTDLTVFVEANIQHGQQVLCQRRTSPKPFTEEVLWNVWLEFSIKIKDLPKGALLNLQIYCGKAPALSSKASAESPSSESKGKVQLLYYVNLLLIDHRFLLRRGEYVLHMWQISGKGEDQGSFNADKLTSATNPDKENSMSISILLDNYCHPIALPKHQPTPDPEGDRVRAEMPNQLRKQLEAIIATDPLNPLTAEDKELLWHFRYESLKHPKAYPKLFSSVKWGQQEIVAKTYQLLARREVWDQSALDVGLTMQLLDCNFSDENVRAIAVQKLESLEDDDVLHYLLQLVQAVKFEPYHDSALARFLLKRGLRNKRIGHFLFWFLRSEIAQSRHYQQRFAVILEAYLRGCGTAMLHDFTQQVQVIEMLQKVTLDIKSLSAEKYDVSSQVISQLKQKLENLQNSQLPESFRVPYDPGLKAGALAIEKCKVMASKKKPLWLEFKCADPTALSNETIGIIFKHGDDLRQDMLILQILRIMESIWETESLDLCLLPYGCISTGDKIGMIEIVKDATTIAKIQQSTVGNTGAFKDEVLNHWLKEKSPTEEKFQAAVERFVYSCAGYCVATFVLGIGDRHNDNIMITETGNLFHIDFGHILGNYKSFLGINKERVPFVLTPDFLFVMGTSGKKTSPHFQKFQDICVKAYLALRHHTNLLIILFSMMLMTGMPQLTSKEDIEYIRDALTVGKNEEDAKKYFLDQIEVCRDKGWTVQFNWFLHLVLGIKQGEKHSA
assayDetails: Inhibition of PI3Kgamma (unknown origin) using PIP2 as substrate measured after 15 mins in presence of [33P]-ATP by liquid scintillation counting method
testReadout: log10 of Ki (log10 of the value in nM)
Use the decimal logarithm of Ki (nM).

Name the reported log10 of Ki value associated with the molecule COc1cc(C#Cc2sc(NC(=O)NCCOCC3CC3)nc2C)cnc1OC 0.48

Check CCCOCCNC(=O)Nc1nc(C)c(C#Cc2ccncc2)s1 too. 0.78

Check Cc1nc(NC(=O)NCCOCC2CC2)sc1C#Cc1ccnc2ccccc12 too. 0.78

Check Cc1nc(NC(=O)NCCc2cn(CC(F)F)cn2)sc1C#Cc1cccnc1 too. 0.60

Check CCOCCNC(=O)Nc1nc(C)c(C#Cc2ccncc2)s1 too. 1.62

Check Cc1nc(NC(=O)NCCOCC2CC2)sc1C#Cc1ccnc(F)c1 too. 0.78

Check Cc1nc(NC(=O)NCCOCC2CC2)sc1C#Cc1cnc2ncccc2c1 too. 1.65

Check COCCNC(=O)Nc1nc(C)c(C#Cc2ccncc2)s1 too. 1.63

====

Please go through the items and note down their pKi.
targetDesc: Interleukin-1 receptor-associated kinase 4 (Homo sapiens, UniProt Q9NWZ3)
Sequence (Q9NWZ3 whole entry): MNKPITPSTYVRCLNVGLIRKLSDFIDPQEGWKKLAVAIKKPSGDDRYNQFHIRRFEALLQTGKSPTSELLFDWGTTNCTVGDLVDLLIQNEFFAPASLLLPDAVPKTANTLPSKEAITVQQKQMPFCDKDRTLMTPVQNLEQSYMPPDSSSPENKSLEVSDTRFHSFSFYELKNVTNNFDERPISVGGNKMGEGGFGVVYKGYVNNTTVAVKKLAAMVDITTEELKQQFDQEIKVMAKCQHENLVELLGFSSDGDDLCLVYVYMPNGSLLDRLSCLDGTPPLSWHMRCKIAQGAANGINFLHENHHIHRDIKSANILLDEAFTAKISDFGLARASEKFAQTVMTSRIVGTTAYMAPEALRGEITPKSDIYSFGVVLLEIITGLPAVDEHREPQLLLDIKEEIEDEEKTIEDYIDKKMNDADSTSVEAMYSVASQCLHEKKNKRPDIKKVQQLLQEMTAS
pKi: −log10 of the molar value.

Test system Interleukin-1 receptor-associated kinase 4 (Homo sapiens, UniProt Q9NWZ3); read-out pKi; what value for Cc1nc(NC(=O)NCCc2cn(CC(F)F)cn2)sc1C#Cc1cccnc1 ? < 5.40

Check COc1cc(C#Cc2sc(NC(=O)NCCOCC3CC3)nc2C)cnc1OC too. < 5.40

====

targetDesc: Mitogen-activated protein kinase 10 (Homo sapiens, UniProt P53779)
Sequence (P53779 whole entry): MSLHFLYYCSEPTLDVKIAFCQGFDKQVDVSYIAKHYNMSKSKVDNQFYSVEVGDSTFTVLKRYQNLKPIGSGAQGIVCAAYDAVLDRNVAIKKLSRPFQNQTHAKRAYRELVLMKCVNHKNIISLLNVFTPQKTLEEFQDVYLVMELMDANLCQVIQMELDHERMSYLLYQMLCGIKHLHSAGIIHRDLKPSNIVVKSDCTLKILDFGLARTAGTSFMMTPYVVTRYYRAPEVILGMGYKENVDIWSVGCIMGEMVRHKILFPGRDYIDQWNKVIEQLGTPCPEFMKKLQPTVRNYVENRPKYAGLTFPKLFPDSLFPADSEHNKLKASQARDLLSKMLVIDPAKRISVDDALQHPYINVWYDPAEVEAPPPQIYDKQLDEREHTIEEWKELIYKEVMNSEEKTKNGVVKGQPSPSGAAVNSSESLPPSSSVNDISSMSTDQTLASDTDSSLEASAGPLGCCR
assayDetails: Inhibition of JNK3 (unknown origin)
testReadout: Ki

Name the reported Ki value associated with the compound Cc1nc(NC(=O)NCCc2cn(CC(F)F)cn2)sc1C#Cc1cccnc1 > 4 µM

Check COc1cc(C#Cc2sc(NC(=O)NCCOCC3CC3)nc2C)cnc1OC too. > 4 µM

Check Cc1nc(NC(=O)NCCOCC2CC2)sc1C#Cc1ccc2cncn2c1 too. > 4 µM

====

targetDesc: Rho-associated protein kinase 1 (Homo sapiens)
pKi: −log10 of the molar value.
testReadout: pKi

Name the reported pKi value associated with the molecule Cc1nc(NC(=O)NCCc2cn(CC(F)F)cn2)sc1C#Cc1cccnc1 < 5.40

====

targetDesc: UniProt P35968
Sequence (P35968 whole entry): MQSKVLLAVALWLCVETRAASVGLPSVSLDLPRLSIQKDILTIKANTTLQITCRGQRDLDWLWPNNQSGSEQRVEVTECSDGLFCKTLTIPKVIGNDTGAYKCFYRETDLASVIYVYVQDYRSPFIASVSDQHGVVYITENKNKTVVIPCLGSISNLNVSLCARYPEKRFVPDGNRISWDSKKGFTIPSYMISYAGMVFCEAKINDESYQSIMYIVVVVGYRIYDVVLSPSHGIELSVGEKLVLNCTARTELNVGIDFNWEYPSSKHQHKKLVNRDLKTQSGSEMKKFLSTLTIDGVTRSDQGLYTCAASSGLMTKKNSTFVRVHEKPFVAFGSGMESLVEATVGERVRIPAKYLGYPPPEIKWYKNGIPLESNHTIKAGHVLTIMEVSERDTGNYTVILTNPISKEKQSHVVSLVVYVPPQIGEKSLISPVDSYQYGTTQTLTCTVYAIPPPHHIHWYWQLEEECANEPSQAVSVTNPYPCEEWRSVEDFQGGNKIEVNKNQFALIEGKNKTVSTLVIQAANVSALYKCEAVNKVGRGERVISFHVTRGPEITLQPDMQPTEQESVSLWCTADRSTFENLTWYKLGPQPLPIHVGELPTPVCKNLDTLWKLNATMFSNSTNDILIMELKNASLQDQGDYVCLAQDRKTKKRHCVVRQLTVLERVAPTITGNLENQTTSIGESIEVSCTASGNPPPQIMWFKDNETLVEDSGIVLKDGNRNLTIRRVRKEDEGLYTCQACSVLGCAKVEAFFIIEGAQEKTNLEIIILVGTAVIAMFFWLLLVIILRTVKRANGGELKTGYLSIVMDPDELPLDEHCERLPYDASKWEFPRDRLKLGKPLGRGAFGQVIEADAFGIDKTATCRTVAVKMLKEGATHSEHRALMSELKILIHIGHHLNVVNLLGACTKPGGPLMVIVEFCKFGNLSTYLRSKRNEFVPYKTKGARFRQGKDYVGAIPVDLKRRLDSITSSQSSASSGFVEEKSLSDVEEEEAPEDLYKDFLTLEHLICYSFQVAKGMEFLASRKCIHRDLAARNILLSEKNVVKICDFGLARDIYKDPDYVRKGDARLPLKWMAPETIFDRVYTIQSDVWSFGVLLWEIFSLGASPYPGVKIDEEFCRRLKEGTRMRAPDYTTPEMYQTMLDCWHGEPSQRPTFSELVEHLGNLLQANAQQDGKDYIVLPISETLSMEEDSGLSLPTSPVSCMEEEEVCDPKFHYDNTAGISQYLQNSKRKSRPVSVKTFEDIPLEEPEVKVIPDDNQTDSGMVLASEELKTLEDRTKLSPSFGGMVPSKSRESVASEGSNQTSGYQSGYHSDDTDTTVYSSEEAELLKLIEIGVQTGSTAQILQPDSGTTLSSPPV
pKi: −log10 of the molar value.
testReadout: pKi

Name the reported pKi value associated with the molecule Cc1nc(NC(=O)NCCOCC2CC2)sc1C#Cc1ccc2cncn2c1 < 5.40

====

targetDesc: Proto-oncogene tyrosine-protein kinase Src (Homo sapiens)
Sequence (P12931 2-536 limits assumed): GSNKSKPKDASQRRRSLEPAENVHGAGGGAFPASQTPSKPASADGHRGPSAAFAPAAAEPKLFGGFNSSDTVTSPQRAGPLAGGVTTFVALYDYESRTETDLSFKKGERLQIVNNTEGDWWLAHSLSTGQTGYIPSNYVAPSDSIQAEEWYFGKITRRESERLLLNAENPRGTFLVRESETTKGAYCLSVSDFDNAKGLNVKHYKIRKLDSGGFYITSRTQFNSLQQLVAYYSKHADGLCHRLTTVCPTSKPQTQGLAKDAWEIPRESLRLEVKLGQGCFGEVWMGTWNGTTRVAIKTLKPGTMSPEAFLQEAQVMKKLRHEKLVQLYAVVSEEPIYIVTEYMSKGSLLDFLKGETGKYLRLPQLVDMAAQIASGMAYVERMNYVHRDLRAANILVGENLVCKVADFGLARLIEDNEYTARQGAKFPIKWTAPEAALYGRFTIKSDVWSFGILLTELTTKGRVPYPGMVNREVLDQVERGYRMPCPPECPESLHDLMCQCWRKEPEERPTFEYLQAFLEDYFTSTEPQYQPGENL
pKi: −log10 of the molar value.
testReadout: pKi

Test system Proto-oncogene tyrosine-protein kinase Src (Homo sapiens); read-out pKi; what value for Cc1nc(NC(=O)NCCOCC2CC2)sc1C#Cc1ccc2cncn2c1 ? < 5.40
